FYI, the data here is from ChEMBL document CHEMBL1933017.

test system: Bacillus cereus; assay: Antibacterial activity against Bacillus cereus at 100 ug/disc after 24 hrs by disc diffusion method; format: functional; settings: read-out: DIZ
endpoint_name: zone of inhibition at 100 µg/disc (mm)
Numbers only, in mm.

molecule	zone of inhibition at 100 µg/disc [mm]
CCN1CCN(CC2SC(c3ccc(Br)cc3)N(c3ccc(Nc4nc(Oc5cc(=O)n(C)c6ccccc56)nc(N(C)C)n4)cc3)C2=O)CC1 (centres undefined)	18
CCN1CCN(CC2SC(c3ccc(F)cc3)N(c3ccc(Nc4nc(Oc5cc(=O)n(C)c6ccccc56)nc(N(C)C)n4)cc3)C2=O)CC1 (centres undefined)	28
CCN1CCN(CC2SC(c3ccc(Cl)c(Cl)c3)N(c3ccc(Nc4nc(Oc5cc(=O)n(C)c6ccccc56)nc(N(C)C)n4)cc3)C2=O)CC1 (centres undefined)	17

In: Given CCN1CCN(CC2SC(c3cccc(F)c3)N(c3ccc(Nc4nc(Oc5cc(=O)n(C)c6ccccc56)nc(N(C)C)n4)cc3)C2=O)CC1 (centres undefined) , respond with its zone of inhibition at 100 µg/disc.
Out: 23

* * *

tested on: Aspergillus niger; assay: Antifungal activity against Aspergillus niger after 48 hrs by agar streak dilution method; assay type: functional
Please go through the items and note down their MIC.
One number for each entry, in µg/mL.

compound	MIC / µg/mL
CCN1CCN(CC2SC(c3ccccc3)N(c3ccc(Nc4nc(Oc5cc(=O)n(C)c6ccccc56)nc(N(C)C)n4)cc3)C2=O)CC1 (stereo not drawn)	100
CCN1CCN(CC2SC(c3ccc(O)cc3)N(c3ccc(Nc4nc(Oc5cc(=O)n(C)c6ccccc56)nc(N(C)C)n4)cc3)C2=O)CC1 (stereo not drawn)	100
CCN1CCN(CC2SC(c3ccc(C(=O)O)cc3)N(c3ccc(Nc4nc(Oc5cc(=O)n(C)c6ccccc56)nc(N(C)C)n4)cc3)C2=O)CC1 (stereo not drawn)	25

# map each compound to its MIC
1. CCN1CCN(CC2SC(c3cccc(O)c3O)N(c3ccc(Nc4nc(Oc5cc(=O)n(C)c6ccccc56)nc(N(C)C)n4)cc3)C2=O)CC1 (stereo not drawn)
2. CCN1CCN(CC2SC(c3cccc(F)c3)N(c3ccc(Nc4nc(Oc5cc(=O)n(C)c6ccccc56)nc(N(C)C)n4)cc3)C2=O)CC1 (stereo not drawn)
3. CCN1CCN(CC2SC(c3ccc(C)cc3)N(c3ccc(Nc4nc(Oc5cc(=O)n(C)c6ccccc56)nc(N(C)C)n4)cc3)C2=O)CC1 (stereo not drawn)

Out:
1. 100
2. 12.5
3. 100

In: Given CCN1CCN(CC2SC(c3ccc(Br)cc3)N(c3ccc(Nc4nc(Oc5cc(=O)n(C)c6ccccc56)nc(N(C)C)n4)cc3)C2=O)CC1 (stereo not drawn) , respond with its MIC.
Out: 100

* * *

Please go through the items and note down their MIC.
system: Staphylococcus aureus; assay: Antibacterial activity against Staphylococcus aureus after 24 hrs by agar streak dilution method; type: functional
Give bare numbers, in µg/mL.

compound	measured_target	MIC / µg/mL
CCN1CCN(CC2SC(c3ccc(C(=O)O)cc3)N(c3ccc(Nc4nc(Oc5cc(=O)n(C)c6ccccc56)nc(N(C)C)n4)cc3)C2=O)CC1 (centres undefined)	Staphylococcus aureus	25
CCN1CCN(CC2SC(c3ccc(O)cc3O)N(c3ccc(Nc4nc(Oc5cc(=O)n(C)c6ccccc56)nc(N(C)C)n4)cc3)C2=O)CC1 (centres undefined)	Staphylococcus aureus	100
CCN1CCN(CC2SC(c3cccc(F)c3)N(c3ccc(Nc4nc(Oc5cc(=O)n(C)c6ccccc56)nc(N(C)C)n4)cc3)C2=O)CC1 (centres undefined)	Staphylococcus aureus	12.5
CCN1CCN(CC2SC(c3ccc(O)cc3)N(c3ccc(Nc4nc(Oc5cc(=O)n(C)c6ccccc56)nc(N(C)C)n4)cc3)C2=O)CC1 (centres undefined)	Staphylococcus aureus	25
CCN1CCN(CC2SC(c3ccccc3C(=O)O)N(c3ccc(Nc4nc(Oc5cc(=O)n(C)c6ccccc56)nc(N(C)C)n4)cc3)C2=O)CC1 (centres undefined)	Staphylococcus aureus	100

# map each compound to its MIC
1. O=C(O)c1cn(C2CC2)c2cc(N3CCNCC3)c(F)cc2c1=O
2. CCN1CCN(CC2SC(c3ccc(Cl)cc3)N(c3ccc(Nc4nc(Oc5cc(=O)n(C)c6ccccc56)nc(N(C)C)n4)cc3)C2=O)CC1 (centres undefined)
3. CCN1CCN(CC2SC(c3ccc([N+](=O)[O-])cc3)N(c3ccc(Nc4nc(Oc5cc(=O)n(C)c6ccccc56)nc(N(C)C)n4)cc3)C2=O)CC1 (centres undefined)

Out:
[1, 6.25, 50]

# map each compound to its MIC
1. CCN1CCN(CC2SC(c3ccc(OC)c(OC)c3)N(c3ccc(Nc4nc(Oc5cc(=O)n(C)c6ccccc56)nc(N(C)C)n4)cc3)C2=O)CC1 (centres undefined)
2. CCN1CCN(CC2SC(c3ccccc3Br)N(c3ccc(Nc4nc(Oc5cc(=O)n(C)c6ccccc56)nc(N(C)C)n4)cc3)C2=O)CC1 (centres undefined)
3. CCN1CCN(CC2SC(c3ccc(Br)cc3)N(c3ccc(Nc4nc(Oc5cc(=O)n(C)c6ccccc56)nc(N(C)C)n4)cc3)C2=O)CC1 (centres undefined)
4. CCN1CCN(CC2SC(c3ccc(F)cc3)N(c3ccc(Nc4nc(Oc5cc(=O)n(C)c6ccccc56)nc(N(C)C)n4)cc3)C2=O)CC1 (centres undefined)
5. CCN1CCN(CC2SC(c3ccc(C)cc3)N(c3ccc(Nc4nc(Oc5cc(=O)n(C)c6ccccc56)nc(N(C)C)n4)cc3)C2=O)CC1 (centres undefined)
6. CCN1CCN(CC2SC(c3ccc(OC)cc3)N(c3ccc(Nc4nc(Oc5cc(=O)n(C)c6ccccc56)nc(N(C)C)n4)cc3)C2=O)CC1 (centres undefined)

Out:
25
100
100
6.25
50
6.25

# map each compound to its MIC
1. CCN1CCN(CC2SC(c3ccc(Cl)c(Cl)c3)N(c3ccc(Nc4nc(Oc5cc(=O)n(C)c6ccccc56)nc(N(C)C)n4)cc3)C2=O)CC1 (centres undefined)
2. CCN1CCN(CC2SC(c3ccccc3)N(c3ccc(Nc4nc(Oc5cc(=O)n(C)c6ccccc56)nc(N(C)C)n4)cc3)C2=O)CC1 (centres undefined)
3. CCN1CCN(CC2SC(c3cccc(O)c3O)N(c3ccc(Nc4nc(Oc5cc(=O)n(C)c6ccccc56)nc(N(C)C)n4)cc3)C2=O)CC1 (centres undefined)
4. CCN1CCN(CC2SC(c3ccccc3[N+](=O)[O-])N(c3ccc(Nc4nc(Oc5cc(=O)n(C)c6ccccc56)nc(N(C)C)n4)cc3)C2=O)CC1 (centres undefined)
5. CCN1CCN(CC2SC(c3ccc(Cl)cc3Cl)N(c3ccc(Nc4nc(Oc5cc(=O)n(C)c6ccccc56)nc(N(C)C)n4)cc3)C2=O)CC1 (centres undefined)

Out:
1: 25; 2: 100; 3: 100; 4: 100; 5: 6.25

* * *

tested on: Aspergillus niger; assay: Antifungal activity against Aspergillus niger after 48 hrs by agar streak dilution method; type: functional
Please go through the items and note down their MIC.
One number for each entry, in µg/mL.

Here's what some known entries look like.
compound	MIC [µg/mL]
CCN1CCN(CC2SC(c3ccc(OC)c(OC)c3)N(c3ccc(Nc4nc(Oc5cc(=O)n(C)c6ccccc56)nc(N(C)C)n4)cc3)C2=O)CC1 (configuration not stated)	100
CCN1CCN(CC2SC(c3ccccc3Br)N(c3ccc(Nc4nc(Oc5cc(=O)n(C)c6ccccc56)nc(N(C)C)n4)cc3)C2=O)CC1 (configuration not stated)	100
CCN1CCN(CC2SC(c3ccc(O)cc3O)N(c3ccc(Nc4nc(Oc5cc(=O)n(C)c6ccccc56)nc(N(C)C)n4)cc3)C2=O)CC1 (configuration not stated)	100
CCN1CCN(CC2SC(c3ccc([N+](=O)[O-])cc3)N(c3ccc(Nc4nc(Oc5cc(=O)n(C)c6ccccc56)nc(N(C)C)n4)cc3)C2=O)CC1 (configuration not stated)	50

# map each compound to its MIC
1. CCN1CCN(CC2SC(c3ccc(OC)cc3)N(c3ccc(Nc4nc(Oc5cc(=O)n(C)c6ccccc56)nc(N(C)C)n4)cc3)C2=O)CC1 (configuration not stated)
2. CCN1CCN(CC2SC(c3ccc(Cl)cc3)N(c3ccc(Nc4nc(Oc5cc(=O)n(C)c6ccccc56)nc(N(C)C)n4)cc3)C2=O)CC1 (configuration not stated)
3. CCN1CCN(CC2SC(c3ccc(Cl)cc3Cl)N(c3ccc(Nc4nc(Oc5cc(=O)n(C)c6ccccc56)nc(N(C)C)n4)cc3)C2=O)CC1 (configuration not stated)

Out:
1: 12.5; 2: 25; 3: 6.25

* * *

tested on: Aspergillus fumigatus; assay: Antifungal activity against Aspergillus fumigatus at 100 ug/disc after 24 hrs by disc diffusion method; type: functional; settings: read-out: DIZ
endpoint_name: zone of inhibition at 100 µg/disc (mm)
Give bare numbers, in mm.

Here's what some known entries look like.
compound	endpoint_name	test_value
CCN1CCN(CC2SC(c3ccc(OC)cc3)N(c3ccc(Nc4nc(Oc5cc(=O)n(C)c6ccccc56)nc(N(C)C)n4)cc3)C2=O)CC1 (centres undefined)	zone of inhibition at 100 µg/disc	27
CCN1CCN(CC2SC(c3ccc([N+](=O)[O-])cc3)N(c3ccc(Nc4nc(Oc5cc(=O)n(C)c6ccccc56)nc(N(C)C)n4)cc3)C2=O)CC1 (centres undefined)	zone of inhibition at 100 µg/disc	20
CCN1CCN(CC2SC(c3ccc(O)cc3O)N(c3ccc(Nc4nc(Oc5cc(=O)n(C)c6ccccc56)nc(N(C)C)n4)cc3)C2=O)CC1 (centres undefined)	zone of inhibition at 100 µg/disc	15
CCN1CCN(CC2SC(c3ccc(Cl)c(Cl)c3)N(c3ccc(Nc4nc(Oc5cc(=O)n(C)c6ccccc56)nc(N(C)C)n4)cc3)C2=O)CC1 (centres undefined)	zone of inhibition at 100 µg/disc	16
CCN1CCN(CC2SC(c3ccccc3C(=O)O)N(c3ccc(Nc4nc(Oc5cc(=O)n(C)c6ccccc56)nc(N(C)C)n4)cc3)C2=O)CC1 (centres undefined)	zone of inhibition at 100 µg/disc	11

# map each compound to its zone of inhibition at 100 µg/disc
1. CCN1CCN(CC2SC(c3ccc(OC)c(OC)c3)N(c3ccc(Nc4nc(Oc5cc(=O)n(C)c6ccccc56)nc(N(C)C)n4)cc3)C2=O)CC1 (centres undefined)
2. CCN1CCN(CC2SC(c3ccc(F)cc3)N(c3ccc(Nc4nc(Oc5cc(=O)n(C)c6ccccc56)nc(N(C)C)n4)cc3)C2=O)CC1 (centres undefined)
3. CCN1CCN(CC2SC(c3ccc(Cl)cc3)N(c3ccc(Nc4nc(Oc5cc(=O)n(C)c6ccccc56)nc(N(C)C)n4)cc3)C2=O)CC1 (centres undefined)
4. CC(=O)N1CCN(c2ccc(OCC3COC(Cn4ccnc4)(c4ccc(Cl)cc4Cl)O3)cc2)CC1 (centres undefined)
5. CCN1CCN(CC2SC(c3cccc(F)c3)N(c3ccc(Nc4nc(Oc5cc(=O)n(C)c6ccccc56)nc(N(C)C)n4)cc3)C2=O)CC1 (centres undefined)
6. CCN1CCN(CC2SC(c3ccc(O)cc3)N(c3ccc(Nc4nc(Oc5cc(=O)n(C)c6ccccc56)nc(N(C)C)n4)cc3)C2=O)CC1 (centres undefined)
7. CCN1CCN(CC2SC(c3ccc(Cl)cc3Cl)N(c3ccc(Nc4nc(Oc5cc(=O)n(C)c6ccccc56)nc(N(C)C)n4)cc3)C2=O)CC1 (centres undefined)
8. CCN1CCN(CC2SC(c3cccc(O)c3O)N(c3ccc(Nc4nc(Oc5cc(=O)n(C)c6ccccc56)nc(N(C)C)n4)cc3)C2=O)CC1 (centres undefined)

Out:
1. 26
2. 28
3. 26
4. 29
5. 24
6. 21
7. 17
8. 13
